Kindly supply the reported gametocyte viability values for the records listed here.
# System: Plasmodium falciparum NF54/iGP1_RE9H ulg8 stage V gametocytes
# MEASUREMENT NOTES: gametocyte viability (luciferase signal relative to DMSO control) (% of DMSO control); higher = less gametocytocidal activity, active = 50 or less
# ASSAY CONDITIONS: concentration: 10 µM; exposure time: 72 h
Structures can show the parent of a compound that is named as a salt. Screen size: about 1,300 compounds; about 40 (3%) showed activity. Many of the other results were omitted from the sample, so actives are more common in it than they were.
API doc: respond with a numeric literal and nothing else, no unit.

Param item = COc1cccc(OC)c1C(=O)N[C@@H]1C(=O)N2[C@@H]1SC(C)(C)[C@@H]2C(=O)O [Methicillin sodium] ; retrieve measured gametocyte viability.
83.1

Lookup CC(C)(C)NC(=O)[C@@H]1CN(Cc2cccnc2)CCN1C[C@@H](O)C[C@@H](Cc1ccccc1)C(=O)N[C@H]1c2ccccc2C[C@H]1O [Indinavir sulfate]
40

Lookup Cc1cc(NC(=O)C2=C(O)c3ccccc3S(=O)(=O)N2C)no1 [Isoxicam]
81.8

Lookup NNC(=O)c1ccncc1 [Isoniazid]
83.4

---

Kindly supply the reported gametocyte viability values for the records listed here.
# System: Plasmodium falciparum NF54/iGP1_RE9H ulg8 stage V gametocytes
# MEASUREMENT NOTES: gametocyte viability (luciferase signal relative to DMSO control) (% of DMSO control); higher = less gametocytocidal activity, active = 50 or less
# ASSAY CONDITIONS: concentration: 10 µM; exposure time: 72 h
Structures can show the parent of a compound that is named as a salt. Out of some 1,300 compounds screened, about 40 (3%) showed activity. The sample holds actives, similar compounds and a random draw of the others, so the mix is not that of the screen.
API doc: respond with a numeric literal and nothing else, no unit.

Param item = CCSc1ccc2c(c1)N(CCCN1CCN(C)CC1)c1ccccc1S2 [Thiethylperazine dimalate] ; retrieve measured gametocyte viability.
32.4

Lookup CN1CCCCC1CCN1c2ccccc2Sc2ccc([S+](C)[O-])cc21 (stereo not drawn) [Mesoridazine besylate]
88.7

Lookup CN(C)CCCN1c2ccccc2Sc2ccc(C(F)(F)F)cc21 [Triflupromazine hydrochloride]
81.5

Lookup OCCN1CCN(CCCN2c3ccccc3Sc3ccc(C(F)(F)F)cc32)CC1 [Fluphenazine dihydrochloride]
68.1

Lookup Cc1c(F)c(N2CCNC(C)C2)cc2c1c(=O)c(C(=O)O)cn2C1CC1 (stereo not drawn)
95.3

Lookup CSc1ccc2c(c1)C(N1CCN(C)CC1)Cc1ccccc1S2 (stereo not drawn) [Methiothepin maleate]
75.3

Lookup CCOC(=O)c1ccc(OC(=O)CCCCCNC(=N)N)cc1 [Gabexate mesilate]
92

Lookup CN1CCN(CCCN2c3ccccc3Sc3ccc(C(F)(F)F)cc32)CC1 [Trifluoperazine dihydrochloride]
46.8

---

# Tested on: Plasmodium falciparum NF54/iGP1_RE9H ulg8 stage V gametocytes
# MEASUREMENT NOTES: gametocyte viability (luciferase signal relative to DMSO control) (% of DMSO control); higher = less gametocytocidal activity, active = 50 or less
# ASSAY CONDITIONS: concentration: 10 µM; exposure time: 72 h
Structures can show the parent of a compound that is named as a salt. The campaign covered roughly 1,300 compounds. About 40 (3%) showed activity. Shown is part of a subset that was picked to be rich in actives.
The categories you may choose from are active, inactive

# fetch the recorded call for c1coc(CNc2ncnc3nc[nH]c23)c1 [6-Furfurylaminopurine] here
inactive

Lookup S=c1[nH]cnc2nc[nH]c12 [Mercaptopurine]
inactive

Lookup CN(C)CCN1C(=O)c2ccccc2N(C)c2ccccc21 [Dibenzepine hydrochloride]
inactive

Lookup CC(C)NCC(O)c1ccc(NS(C)(=O)=O)cc1 (stereo not given) [Sotalol hydrochloride]
inactive

Lookup CN(C)CCOC1=Cc2ccccc2Sc2ccc(Cl)cc21 [Zotepine]
inactive

Lookup Cc1cc(C(=O)NNCc2ccccc2)no1 [Isocarboxazid]
inactive

Lookup Cc1ccc(S(=O)(=O)NC(=O)NN2CC3CCCC3C2)cc1 (stereo not given) [Gliclazide]
inactive

Lookup Nc1nc(CC(=O)Nc2ccc(CCNC[C@H](O)c3ccccc3)cc2)cs1 [Mirabegron]
inactive

Lookup c1ccc(CNc2ncnc3nc[nH]c23)cc1 [Aminopurine, 6-benzyl]
active

Lookup CCCC1C(=O)N2C(N(C)C)=Nc3ccc(C)cc3N2C1=O (stereo not given) [Azapropazone]
inactive
